Answer each item with its documented Mean relative activity.
Test system: K562 CRISPRi cells
Assay: Constant region variant library pooled growth screen, K562
Type: cell-based, human
Details: sgRNA constant region variants; activity relative to the original, un-modified constant region cr995
Please state the value as a number alone, without comment.

Entry under review: cr788 (nucleic acid, listed as DNA, chemistry not fully specified) guide: GTTTAAGAGCTAAGCTGGAAACAGCATATCAAGTTTAAATAAGGCTAGTCCGTTATCAACTTGAAAAAGTGGCACCGAGTCGGTGCT . Reported Mean relative activity?
0.8617

State the recorded Mean relative activity for this entry: cr915 (nucleic acid, listed as DNA, chemistry not fully specified) guide: GTTTAAGAGCTAAGCTGGAAACAGCATAGCAAGTTTAAATAAGGCTAGTCCGTTATCAACTTGAAAAAGTGGCACCCAGTGGGTGCT
0.5965

Need Mean relative activity of cr093 (nucleic acid, listed as DNA, chemistry not fully specified) guide: GTTTCGGAGCTAAGCTGGAAACAGCATAGCAAGTTTAAATAAGGCTAGTCCGTTATCAACTTGAAAAAGTGGCACCGAGTCGGTGCT , thanks.
0.001456

// lookup Mean relative activity for cr438 (nucleic acid, listed as DNA, chemistry not fully specified) guide: GTTTAAGAGCTAAGCTGGAAACAGCATAGCCAGTTTAAATACGGCTAGTCCGTTGTCAACTTGAAAAAGTGGCACCGAGTCGGTGCT
0.06886

Source of measurements: patent US20220259593A1
